Would you kindly list EC50 for each of these compounds?
Test system: SARS-CoV-2
EXPERIMENT: Antiviral activity against SARS-CoV-2 (hCoV-19/Korea/KCDC-06/2020) infected in African green monkey Vero cells preincubated with cells for 24 hrs followed by viral infection and measured after 24 hrs by DAPI-staining based fluorescence assay
Assay type: functional, organism-based
PROTOCOL CONDITIONS: Severe acute respiratory syndrome coronavirus 2, hCoV-19/Korea/KCDC-06/2020, Vero

Looking for the measured EC50 of CCOC(=O)[C@H](Cc1ccccc1)Nc1ccn([C@@H]2O[C@H](CO)[C@@H](O)[C@H]2O)c(=O)n1 , can you help?
> 100 µM

Look up EC50: CCOC(=O)[C@H](C)Nc1ccn([C@@H]2O[C@H](CO)[C@@H](O)[C@H]2O)c(=O)n1
> 100 µM

Requested field: EC50. Item: CC(C)C(=O)OC[C@H]1O[C@@H](n2ccc(NO)nc2=O)[C@H](O)[C@@H]1O
11.8 µM

# lookup: EC50 of CCOC(=O)[C@H](CC(C)C)Nc1ccn([C@@H]2O[C@H](CO)[C@@H](O)[C@H]2O)c(=O)n1
> 100 µM

# get_value(readout='EC50', item= CC(C)(C)OC(=O)NNc1ccn([C@@H]2O[C@H](CO)[C@@H](O)[C@H]2O)c(=O)n1 )
> 100 µM

Value lookup for EC50; key = O=c1nc(NCCO)ccn1[C@@H]1O[C@H](CO)[C@@H](O)[C@H]1O
> 100 µM

Which EC50 is reported for this compound? O=c1nc(NO)ccn1[C@@H]1O[C@H](CO)[C@@H](O)[C@H]1O [N-HYDROXYCYTIDINE]
> 16.5 µM

If you can, please state the reported EC50 value of CC(C)C(=O)ONc1ccn([C@@H]2O[C@H](CO)[C@@H](O)[C@H]2O)c(=O)n1 .
3.5 µM

Fill blank: measured EC50 of the compound CCOC(=O)CNc1ccn([C@@H]2O[C@H](CO)[C@@H](O)[C@H]2O)c(=O)n1 is ____.
> 100 µM

EC50 lookup needed for NNc1ccn([C@@H]2O[C@H](CO)[C@@H](O)[C@H]2O)c(=O)n1 , thanks.
> 100 µM

###

Test system: BHK-21
EXPERIMENT: Cytotoxicity against hamster BHK-21 cells incubated for 4 days by MTS assay
Assay type: toxicity, cell-based, Mesocricetus auratus
PROTOCOL CONDITIONS: bhk-21, 96 h, time 4 day
METRIC: CC50 (µM)
Quick reminder: number only, in µM, skip the unit.

For the record O=c1nc(NO)ccn1[C@@H]1O[C@H](CO)[C@@H](O)[C@H]1O [N-HYDROXYCYTIDINE] , what value of CC50 is listed for BHK-21?
5.75

GET /values?readout=CC50&system=BHK-21&item= CC(C)C(=O)OC[C@H]1O[C@@H](n2ccc(NO)nc2=O)[C@H](O)[C@@H]1O
42.2

# get_value(readout= CC50, system= BHK-21) for CC(C)C(=O)ONc1ccn([C@@H]2O[C@H](CO)[C@@H](O)[C@H]2O)c(=O)n1
10.8

Form: Entry = NC(=O)c1ncn([C@@H]2O[C@H](CO)[C@@H](O)[C@H]2O)n1 | System = BHK-21 | CC50 = ____
5.46
